As shown below, each of these binders has a reported Kd value.
- Study target: T1, soluble mouse BLyS (mouse, UniProt Q9WU72 127-309)
- T1 construct: europium-labelled in DELFIA; also called mBLyS; mouse BAFF (BLyS)
- Test details: Biacore, antibody captured on chip, BLyS injected, 1:1 model, 25 C
Respond with the bare value in nM.

A selection of reference data follows.
INSERT INTO assay_data (binder, unit_abbreviation, assay_result) VALUES
  ('8D12 IgG1 F243A/V264A double mutein expressed in Pichia pastoris (antibody, V domains shown, IgG1 F243A/V264A (EU) double mutein, alpha-2,6-sialylated, from glycoengineered Pichia pastoris; also called 8D12-DM; 8D12-DM (Pichia)) VH: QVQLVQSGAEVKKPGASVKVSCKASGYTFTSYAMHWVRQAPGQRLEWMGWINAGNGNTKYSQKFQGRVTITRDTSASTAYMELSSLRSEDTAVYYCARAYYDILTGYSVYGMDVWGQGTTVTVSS VL: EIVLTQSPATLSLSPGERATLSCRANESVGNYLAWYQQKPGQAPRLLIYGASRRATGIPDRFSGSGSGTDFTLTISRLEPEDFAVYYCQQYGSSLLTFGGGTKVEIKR', 'nM', 0.099),
  ('6C10 IgG expressed in HEK293 cells (antibody, V domains shown, IgG from HEK293-FreeStyle cells; also called 6C10 (293)) VH: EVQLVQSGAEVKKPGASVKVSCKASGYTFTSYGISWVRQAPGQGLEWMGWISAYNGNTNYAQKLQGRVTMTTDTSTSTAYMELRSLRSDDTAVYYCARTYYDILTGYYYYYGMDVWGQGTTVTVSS VL: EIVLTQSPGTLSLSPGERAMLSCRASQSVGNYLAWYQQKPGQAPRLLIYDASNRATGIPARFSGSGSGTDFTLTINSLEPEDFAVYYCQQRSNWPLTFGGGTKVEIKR', 'nM', 0.334);

For the next question, use this binder.
I have this binder here, 5B7 IgG1 F243A/V264A double mutein expressed in Pichia pastoris (antibody, V domains shown, IgG1 F243A/V264A (EU) double mutein, alpha-2,6-sialylated, from glycoengineered Pichia pastoris; also called 5B7-DM; 5B7-DM Pichia) VH: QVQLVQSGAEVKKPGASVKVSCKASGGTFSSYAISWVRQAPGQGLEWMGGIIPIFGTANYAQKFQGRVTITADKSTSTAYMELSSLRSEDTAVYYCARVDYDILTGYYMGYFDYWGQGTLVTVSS VL: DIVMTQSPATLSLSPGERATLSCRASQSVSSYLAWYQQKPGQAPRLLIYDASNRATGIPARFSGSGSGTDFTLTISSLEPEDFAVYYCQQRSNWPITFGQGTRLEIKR , and I need its recorded Kd.
0.065

These data points were gathered from patent US20170101466A1.
